Test protocol: The drug is tested on Z-016 corresponding to mouse gut metagenome with ENA study accession number: PRJEB37062 and ENA sample accession number: ERS12561815 for biotransformation under anaerobic condition. The drug concentrations were measured over 9 timepoints collected between 0 and 24 hours of incubation by liquid-chromatography-coupled mass spectrometry (LC–MS); further: call rule not given here
Test conditions: 2 µM
Property: Bacterial Biotransformation

Known results for molecules:
CCN(CC)CCOC(=O)C1(C2CCCCC2)CCCCC1
Compound NOT metabolized
Cc1ccccc1C(OCCN(C)C)c1ccccc1.O=C(O)CC(O)(CC(=O)O)C(=O)O (centres undefined) [ORPHENADRINE CITRATE]
Compound metabolized
CCN(CC)C(=O)C1(c2ccccc2)CC1CN (centres undefined)
Compound NOT metabolized
Br.CN1CCC[C@@H]1Cc1c[nH]c2ccc(CCS(=O)(=O)c3ccccc3)cc12 [ELETRIPTAN HYDROBROMIDE]
Compound NOT metabolized
CCCC(C)(COC(N)=O)COC(=O)NC(C)C (centres undefined)
Compound metabolized

## Input Bacterial Biotransformation for Nc1nc(NC2CC2)c2ncn([C@H]3C=C[C@@H](CO)C3)c2n1.Nc1nc(NC2CC2)c2ncn([C@H]3C=C[C@@H](CO)C3)c2n1.O=S(=O)(O)O [ABACAVIR SULFATE] ?
## Output Compound NOT metabolized

## Input Try COc1ccccc1OCCNCC(O)COc1cccc2[nH]c3ccccc3c12 (centres undefined) next.
## Output Compound NOT metabolized

## Input Try O=C1CCc2ccc(OCCCCN3CCN(c4cccc(Cl)c4Cl)CC3)cc2N1 next.
## Output Compound metabolized

## Input Try Clc1cccc(Cl)c1N=C1NCCN1 next.
## Output Compound NOT metabolized

---

Test conditions: human gut metagenome, 24 h, 2 µM
Property: Bacterial Biotransformation

Known results for molecules:
CC[C@H](C)C(=O)O[C@H]1CCC=C2C=C[C@H](C)[C@H](CC[C@@H]3C[C@@H](O)CC(=O)O3)[C@H]21
Compound metabolized
O=P1(N(CCCl)CCCl)NCCCO1 (stereo not given) [CYCLOPHOSPHAMIDE ANHYDROUS]
Compound metabolized
COc1ccccc1OCCNCC(O)COc1cccc2[nH]c3ccccc3c12 (stereo not given)
Compound metabolized
CCCCC(=O)O[C@]1(C(=O)CO)[C@@H](C)C[C@H]2[C@@H]3CCC4=CC(=O)C=C[C@]4(C)[C@@]3(F)[C@@H](O)C[C@@]21C [BETAMETHASONE VALERATE]
Compound NOT metabolized

In the following, a different molecule is considered.
## Input Bacterial Biotransformation for CN(C/C=C/C#CC(C)(C)C)Cc1cccc2ccccc12 ?
## Output Compound NOT metabolized

---

Test protocol: The drug is tested on WLS-086 corresponding to human gut metagenome with ENA study accession number: PRJEB37062 and ENA sample accession number: ERS12561752 for biotransformation under anaerobic condition. The drug concentrations were measured over 9 timepoints collected between 0 and 24 hours of incubation by liquid-chromatography-coupled mass spectrometry (LC–MS)
Test conditions: 2 µM
Property: Bacterial Biotransformation

C[C@]12C=CC(=O)C=C1CC[C@@H]1[C@@H]2C(=O)C[C@@]2(C)[C@H]1CC[C@]2(O)C(=O)CO
Compound metabolized
CN(C)CCc1c[nH]c2ccc(CS(=O)(=O)N3CCCC3)cc12
Compound metabolized
COc1ccc2c(c1)c(CC(=O)O)c(C)n2C(=O)c1ccc(Cl)cc1
Compound metabolized
CC(C)(C)N.CCC[C@H](N[C@@H](C)C(=O)N1[C@H](C(=O)O)C[C@@H]2CCCC[C@@H]21)C(=O)OCC
Compound metabolized
CN1CCN2c3ccccc3Cc3ccccc3C2C1 (centres undefined)
Compound metabolized

## Input Bacterial Biotransformation for COC(=O)C(c1ccccc1)C1CCCCN1 (centres undefined) [METHYLPHENIDATE] ?
## Output Compound NOT metabolized

## Input Try N#Cc1ccc2[nH]cc(CCCCN3CCN(c4ccc5oc(C(N)=O)cc5c4)CC3)c2c1 next.
## Output Compound metabolized

## Input Try CC12CC3CC(C)(C1)CC(N)(C3)C2 [MEMANTINE] next.
## Output Compound NOT metabolized

## Input Try CN(C)CCC=C1c2ccccc2COc2ccccc21 [DOXEPIN] next.
## Output Compound NOT metabolized

Data credit: ChEMBL document CHEMBL5724914
